# STUDY_SYSTEM: furin, P09958;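 note: purified furin at 1:10 enzyme:substrate in 50 mM HEPES pH 7.5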
# Sequence (P09958 whole entry): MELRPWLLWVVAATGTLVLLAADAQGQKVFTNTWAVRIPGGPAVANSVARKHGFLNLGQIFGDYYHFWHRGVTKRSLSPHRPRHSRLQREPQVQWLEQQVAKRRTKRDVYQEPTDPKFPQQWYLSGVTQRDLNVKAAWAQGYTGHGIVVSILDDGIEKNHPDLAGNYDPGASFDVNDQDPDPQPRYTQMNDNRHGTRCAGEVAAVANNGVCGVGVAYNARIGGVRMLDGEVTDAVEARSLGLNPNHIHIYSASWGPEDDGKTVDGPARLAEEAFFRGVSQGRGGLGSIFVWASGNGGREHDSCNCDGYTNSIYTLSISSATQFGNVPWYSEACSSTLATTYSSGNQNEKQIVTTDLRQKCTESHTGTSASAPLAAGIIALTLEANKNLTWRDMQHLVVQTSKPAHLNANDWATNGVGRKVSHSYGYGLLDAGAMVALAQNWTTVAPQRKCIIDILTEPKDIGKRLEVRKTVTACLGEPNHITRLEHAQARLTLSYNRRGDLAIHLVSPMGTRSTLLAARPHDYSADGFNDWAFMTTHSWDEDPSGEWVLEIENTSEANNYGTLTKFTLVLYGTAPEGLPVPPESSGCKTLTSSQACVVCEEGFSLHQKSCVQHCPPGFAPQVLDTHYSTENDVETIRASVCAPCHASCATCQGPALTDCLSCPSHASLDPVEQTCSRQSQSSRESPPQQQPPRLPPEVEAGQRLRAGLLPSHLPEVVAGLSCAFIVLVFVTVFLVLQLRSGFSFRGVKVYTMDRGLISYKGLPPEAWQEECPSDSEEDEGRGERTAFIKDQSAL
# ASSAY_NOTES: furin cleavage Z-score vs untreated control; higher = more cleavage, active = 3.5 or more, inactive = 1 or less, 8 variable residues between constant flanks
# CONDITION_SET: 30 min
This is one part of the list. The true hit rate is not given.
REPORTED_ENDPOINT: furin cleavage Z-score

INSERT INTO measurements (sequence_entry, reported_endpoint, reported_result) VALUES
  ('CARHRRALDTAGNASASA [FS-2943]', 'furin cleavage Z-score', 5.06),
  ('CARHRRRGSPAGNASASA [FS-2146]', 'furin cleavage Z-score', 1.39),
  ('CARKKKTEGTAGNASASA [FS-2423]', 'furin cleavage Z-score', 0.176),
  ('CAACTTPCSGAGNASASA [HC1943]', 'furin cleavage Z-score', -0.2),
  ('CAYRRRPPRSAGNASASA [FS-111]', 'furin cleavage Z-score', 0.965),
  ('CAYRYRRRRSAGNASASA [FS-1440]', 'furin cleavage Z-score', 3.7),
  ('CAVTPCAAEEAGNASASA [HC1376]', 'furin cleavage Z-score', -0.78);

Cited source: the supplement of paper PMC3545927
